pIC50 values by entry
molecular target: human CXCR3A (Homo sapiens (Human), UniProt P49682); assay: FLIPR assay (calcium flux, CXCL10-induced); conditions: CHO-K1 cells expressing human CXCR3A coupled to Galpha(16); CXCL10 agonist at 20 nM
Sequence (P49682 whole entry): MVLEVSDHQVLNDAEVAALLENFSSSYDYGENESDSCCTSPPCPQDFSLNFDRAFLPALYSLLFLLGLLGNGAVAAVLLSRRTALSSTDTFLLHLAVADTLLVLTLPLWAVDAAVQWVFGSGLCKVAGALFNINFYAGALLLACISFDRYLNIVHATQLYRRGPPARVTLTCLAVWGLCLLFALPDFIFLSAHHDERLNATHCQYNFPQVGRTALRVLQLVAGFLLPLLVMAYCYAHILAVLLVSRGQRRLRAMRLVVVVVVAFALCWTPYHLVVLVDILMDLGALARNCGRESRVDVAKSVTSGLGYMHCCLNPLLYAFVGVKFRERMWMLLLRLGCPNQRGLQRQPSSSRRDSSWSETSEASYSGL
pIC50: −log10 of the molar value.

- compound: "C[C@@H]1CN(c2sc(C(F)(F)F)nc2-c2cnc(C(F)(F)F)nc2)CCN1C(=O)Cn1cnc(C(C)(C)O)n1"
  assayed_target: "human CXCR3A (Homo sapiens (Human), UniProt P49682)"
  pIC50: 8.49
- compound: "CCc1ncn(CC(=O)N2CCN(c3sc(C(F)(F)F)nc3-c3cnc(C(F)(F)F)nc3)C[C@H]2C)n1"
  assayed_target: "human CXCR3A (Homo sapiens (Human), UniProt P49682)"
  pIC50: 8.70
- compound: "COCc1ncn(CC(=O)N2CCN(c3sc(C(F)(F)F)nc3-c3cnc(C(F)(F)F)nc3)C[C@H]2C)n1"
  assayed_target: "human CXCR3A (Homo sapiens (Human), UniProt P49682)"
  pIC50: 8.57
- compound: "CCOc1ncc(-c2nc(C(F)(F)F)sc2N2CCN(C(=O)Cn3cnc(COC)n3)[C@H](C)C2)cn1"
  assayed_target: "human CXCR3A (Homo sapiens (Human), UniProt P49682)"
  pIC50: 7.89
- compound: "CCCc1ncn(CC(=O)N2CCN(c3sc(C(F)(F)F)nc3-c3cnc(C(F)(F)F)nc3)C[C@H]2C)n1"
  assayed_target: "human CXCR3A (Homo sapiens (Human), UniProt P49682)"
  pIC50: 8.36
- compound: "CC(O)c1ncn(CC(=O)N2CCN(c3sc(C(F)(F)F)nc3-c3cnc(C(F)(F)F)nc3)C[C@H]2C)n1 (stereo partly shown)"
  assayed_target: "human CXCR3A (Homo sapiens (Human), UniProt P49682)"
  pIC50: 9.05
- compound: "CCc1ncn(CC(=O)N2CCN(c3sc(C(F)(F)F)nc3-c3cnc(C4CC4)nc3)C[C@H]2C)n1"
  assayed_target: "human CXCR3A (Homo sapiens (Human), UniProt P49682)"
  pIC50: 8.60
